src = patent US20220112288A1

# testedTarget: T1, Recombinant human CD4 (R&D Systems, Cat. 10327-CD) (human, UniProt P01730 26-390, limits assumed)
# T1 construct: Soluble analyte in the Octet assay
# test: BLI Octet, mAb on anti-mouse Fc sensor, CD4 100/50/25 nM, 1:1 global fit;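 note: antibodies loaded at 10 µg/mL, an unrelated mouse-derived antibody served as internal reference control, association and dissociation phases fitted after Savitzky-Golay smoothing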
Give measured koff for each item. Keep answers brief.
Give the number; s⁻¹ is assumed, so skip it.

I would be grateful if you could share the reported koff for 75110_04B08A (antibody, V domains shown, Tested as antibody purified from AlivaMab Mouse hybridoma supernatant (captured by anti-mouse IgG Fc)) VH: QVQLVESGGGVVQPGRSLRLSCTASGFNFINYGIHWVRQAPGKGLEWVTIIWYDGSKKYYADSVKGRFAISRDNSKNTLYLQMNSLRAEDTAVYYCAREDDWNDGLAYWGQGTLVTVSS VL: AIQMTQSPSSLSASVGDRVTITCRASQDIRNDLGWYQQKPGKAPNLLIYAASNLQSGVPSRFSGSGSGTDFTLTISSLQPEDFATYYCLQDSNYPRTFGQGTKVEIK .
0.0037

I would be grateful if you could share the reported koff for 75110_01H18A (antibody, V domains shown, Tested as antibody purified from AlivaMab Mouse hybridoma supernatant (captured by anti-mouse IgG Fc)) VH: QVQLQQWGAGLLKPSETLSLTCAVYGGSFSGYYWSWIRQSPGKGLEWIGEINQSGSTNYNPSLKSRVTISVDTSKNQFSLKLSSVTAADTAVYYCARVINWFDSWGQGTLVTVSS VL: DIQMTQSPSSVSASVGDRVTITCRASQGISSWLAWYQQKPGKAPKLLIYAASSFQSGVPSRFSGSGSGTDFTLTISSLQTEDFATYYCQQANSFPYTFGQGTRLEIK .
0.0016

I would be grateful if you could share the reported koff for 75110_02N15A (antibody, V domains shown, Tested as antibody purified from AlivaMab Mouse hybridoma supernatant (captured by anti-mouse IgG Fc)) VH: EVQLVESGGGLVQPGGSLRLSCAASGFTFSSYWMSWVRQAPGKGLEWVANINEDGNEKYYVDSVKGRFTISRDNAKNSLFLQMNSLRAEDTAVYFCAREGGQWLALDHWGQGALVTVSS VL: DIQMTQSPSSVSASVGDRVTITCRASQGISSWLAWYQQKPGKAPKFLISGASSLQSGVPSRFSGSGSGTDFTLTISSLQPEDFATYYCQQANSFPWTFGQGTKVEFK .
0.0017

I would be grateful if you could share the reported koff for 75110_04K10A (antibody, V domains shown, Tested as antibody purified from AlivaMab Mouse hybridoma supernatant (captured by anti-mouse IgG Fc)) VH: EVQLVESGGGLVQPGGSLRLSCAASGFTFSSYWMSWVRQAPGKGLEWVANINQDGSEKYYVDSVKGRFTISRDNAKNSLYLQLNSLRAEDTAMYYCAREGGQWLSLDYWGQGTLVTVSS VL: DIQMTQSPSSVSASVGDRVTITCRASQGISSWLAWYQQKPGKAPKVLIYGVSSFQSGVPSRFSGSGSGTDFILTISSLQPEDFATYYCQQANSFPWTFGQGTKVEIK .
0.0042
